// cross-study collection: IC50 for UniProt Q13464
Outcome Measure: IC50

# Smiles String, Observed Value
records = [
    ("CC(=O)c1cc(C(=O)N[C@H](C)c2ccccc2)ccc1-c1cn[nH]c1", "> 2 µM"),
    ("O=C(NCc1cc(F)cc(F)c1)N1CCc2cc(-c3cn[nH]c3)ccc21", "0.05 to 0.5 µM"),
    ("O=C(Nc1ccccn1)c1cc2ccc(-c3nccc(Nc4ccc5[nH]ncc5c4)n3)cc2[nH]1", "> 10 µM"),
    ("COc1cc(F)cc(CNC(=O)c2nn(C)c3cc(-c4cn[nH]c4)ccc23)c1", "≤ 0.05 µM"),
    ("O=C(Nc1ccncc1)c1cc2ccc(-c3nccc(Nc4ccc(-c5cn[nH]c5)cc4)n3)cc2s1", "> 10 µM"),
    ("Cc1[nH]ncc1-c1ccc(Nc2ccnc(-c3ccc4cc(C(=O)N5CC(F)(F)C5)n(C)c4c3)n2)cc1", "> 10 µM"),
    ("O=C(N1CCc2cc(-c3nccc(Nc4ccc(-c5cn[nH]c5)cc4)n3)ccc2C1)N1CC(F)(F)C1", "> 10 µM"),
    ("COc1ccc2c(c1)CN(c1ccnc(Nc3ccc4[nH]ncc4c3)n1)C2", "> 10 µM"),
    ("Fc1ccc2c(c1)CN(c1nc3c(c(Nc4ccc5[nH]ncc5c4)n1)COC3)C2", "> 10 µM"),
    ("COc1cncc2cccc(S(=O)(=O)N3CC[C@H](N)C3)c12", "1 to 3 µM"),
    ("O=C(NCC(F)(F)F)c1cc2ccc(-c3nccc(Nc4ccc(-c5cn[nH]c5)cc4)n3)cc2s1", "> 10 µM"),
    ("C=Cn1c(C(=O)N2CC(F)(F)C2)cc2ccc(-c3nccc(Nc4ccc(-c5cn[nH]c5)cc4)n3)cc21", "> 10 µM"),
    ("CC(C)CNC(=O)COc1cc(F)cc([C@@H](CO)NC(=O)N2CCc3cc(-c4cn[nH]c4)c(F)cc32)c1", "≤ 0.05 µM"),
    ("O=C(c1cc2ccc(-c3nc(Nc4ccc(-c5cn[nH]c5)cc4)c4sccc4n3)cc2[nH]1)N1CCOCC1", "> 10 µM"),
    ("COc1cc(F)cc(CNC(=O)N2CCc3cc(-c4c[nH]nc4F)c(F)cc32)c1", "≤ 0.05 µM"),
    ("Cn1c(C(=O)N2CC(F)(F)C2)cc2c1CN(c1nccc(Nc3ccc(-c4cn[nH]c4)cc3)n1)CC2(C)C", "> 4.5 µM"),
]

* * *

Listed below are compounds with IC50 for Rho-associated protein kinase 1 (Homo sapiens, UniProt Q13464), each taken from published literature.

# Compound, IC50
measured = [
    ("Cn1c(C(=O)N2CC(F)(F)C2)cc2c1CN(c1nccc(Nc3ccc4[nH]ncc4c3)n1)CC2", "0.5 to 4.5 µM"),
    ("Cc1cncc2cccc(S(=O)(=O)N3CC[C@H](NC(C)C)C3)c12", "1 to 3 µM"),
    ("COc1ccc(CN[C@H]2CCN(S(=O)(=O)c3cccc4cncc(F)c34)C2)cc1", "< 1 µM"),
    ("COc1cc2nc(-c3cccc(NC(=O)CN4CCOCC4)c3)nc(Nc3ccc4[nH]ncc4c3)c2cc1OCCN1CCCC1", "> 3 µM"),
    ("Cn1c(C(=O)N2CC(F)(F)C2)cc2c1CN(c1nnc(Nc3ccc(-c4cn[nH]c4)cc3)o1)CC2", "> 4.5 µM"),
    ("Cn1c(C(=O)N2CC(F)(F)C2)cc2ccc(-c3ncc(C(F)(F)F)c(Nc4ccc(-c5cn[nH]c5)cc4)n3)cc21", "> 10 µM"),
    ("Cc1cc(C(=O)NCc2cccc(C(=O)NCC3CC3)c2)ccc1-c1cn[nH]c1", "0.00338 µM"),
    ("COc1cccc(C(CN)NC(=O)c2cc(CN3CCCC3)cc(-c3ccc4[nH]nc(F)c4c3)c2)c1 (stereo not shown)", "1.61 µM"),
    ("COc1cc(-c2cn[nH]c2)c(F)cc1C(=O)N[C@H](C)c1ccccc1", "0.0371 µM"),
    ("CC1=C(C(=O)Nc2ccc3[nH]ncc3c2)C(c2ccc(F)c(CC(=O)NCc3c(C(F)(F)F)cccc3C(F)(F)F)c2)NC(=O)N1 (stereo not shown)", "0.4 µM"),
    ("O=C(Nc1ccncn1)c1cc2ccc(-c3nccc(Nc4ccc5[nH]ncc5c4)n3)cc2[nH]1", "> 10 µM"),
    ("O=C(Nc1ccncc1F)c1cc2ccc(-c3nccc(Nc4ccc5[nH]ncc5c4)n3)cc2[nH]1", "> 10 µM"),
    ("COc1cccc(CNC(=O)N2CCc3cc(-c4c[nH]nc4N)c(F)cc32)c1", "0.05 to 0.5 µM"),
    ("Cc1cnc2ccc(NCCN(C)C)nn12", "36 µM"),
    ("COc1cc(F)cc([C@@H](C)NC(=O)c2ncn3cc(-c4cn[nH]c4F)ccc23)c1", "≤ 0.05 µM"),
    ("C[C@@H](NC(=O)c1ccc(-c2cn[nH]c2)c(N(C)C)c1)c1ccc(F)cc1", "0.145 µM"),
    ("C[C@@H](NC(=O)c1ccc(-c2cn[nH]c2)c(Cn2ccnn2)c1)c1ccccc1", "> 2 µM"),
    ("Cn1c(C(=O)N2CC(=CC#N)C2)cc2ccc(-c3nccc(Nc4ccc(-c5cn[nH]c5)cc4)n3)cc21", "6.86 µM"),
    ("O=S(=O)(c1cccc2cncc(Cl)c12)N1CC[C@H](NCc2ccco2)C1", "1 to 3 µM"),
    ("O=C(NC1CCOC1)c1cc2ccc(-c3nccc(Nc4ccc(-c5cn[nH]c5)cc4)n3)cc2[nH]1 (stereo not shown)", "2.76 µM"),
    ("CN(CC#N)C(=O)c1cc2ccc(-c3nccc(Nc4ccc(-c5cn[nH]c5)cc4)n3)cc2[nH]1", "> 10 µM"),
    ("Cn1c(C(=O)N2C[C@@H](O)[C@@H](F)C2)cc2c1CN(c1nccc(Nc3ccc(-c4cn[nH]c4)cc3)n1)CC2", "0.5 to 4.5 µM"),
    ("COc1cc(F)cc(CNC(=O)N2CCc3cc(-c4cn[nH]c4)cc(Cl)c32)c1", "0.05 to 0.5 µM"),
    ("O=C(NC(CCO)c1ccccc1F)c1cccc(-c2ccc3[nH]ncc3c2)c1 (stereo not shown)", "0.304 µM"),
    ("COc1cc(-c2cn[nH]c2)ccc1C(=O)N[C@@H](c1ccccc1)[C@H](O)CO", "0.00759 µM"),
]
